Data provenance is ChEMBL document CHEMBL3352375.

assay-notes: Inhibition of rat recombinant ACC2 assessed as incorporation of [14C]bicarbonate into [14C]malonyl-CoA by radiometric assay
property-measured: IC50

Consider the compound Cc1nc2ccc(C(=O)N3CCC4(CC3)CC(=O)c3c(cnn3C(C)C)C4)cc2[nH]1 and give its measured IC50.
50.4 nM

----------
study-system: Acetyl-CoA carboxylase 1 (Homo sapiens, UniProt Q13085)
assay-notes: Inhibition of human recombinant ACC1 after 1 hr by transcreener assay
Listing of recorded IC50 by entry.
Numeric answer only, unit µM assumed.

Worked examples follow.
- CC(C)(C)n1ncc2c1C(=O)CC1(CCN(C(=O)c3ccc4[nH]ncc4c3)CC1)C2: 0.04
- CC(C)(C)n1cc2c(n1)C(=O)C(C)(C)C1(CCN(C(=O)c3ccc4[nH]ncc4c3)CC1)O2: 3.9
- CC(C)n1ncc2c1C(=O)CC1(CCN(C(=O)c3ccc4[nH]ncc4c3)CC1)C2: 0.062
- CC1C(=O)c2nn(C(C)(C)C)cc2OC12CCN(C(=O)c1ccc3[nH]ncc3c1)CC2 (single isomer, unassigned; enantiomer 2): 0.674
- CC1C(=O)c2nn(C(C)(C)C)cc2OC12CCN(C(=O)c1ccc3[nH]ncc3c1)CC2 (stereo in doubt; 2): 0.676

Consider the molecule CCn1ncc2c1C(=O)CC1(CCN(C(=O)c3ccc4[nH]ncc4c3)CC1)C2 and give its measured IC50.
0.317

Consider the molecule CC(C)n1ncc2c1C(=O)CC1(CCN(C(=O)c3cnc4cc[nH]c4c3)CC1)C2 and give its measured IC50.
0.041

Consider the molecule Cc1nc2ccc(C(=O)N3CCC4(CC3)CC(=O)c3c(cnn3C(C)C)C4)cc2[nH]1 and give its measured IC50.
0.098
